- Method Summary: Cytotoxicity (CC50) in RD cells
- Assay type: cell-based
- Measurement Setup: human
Property Name: CC50 (µM)

[[record]]
compound = "CC(C)n1ccc2c(C(=O)Nc3ccc(F)cc3)cc(-c3cccs3)nc21 [JX-037]"
comparative_sign = ">"
readout_value = 200

[[record]]
compound = "CC(C)n1ncc2c(C(=O)Nc3ccccc3F)cc(-c3cccs3)nc21 [JX-001, reference compound]"
comparative_sign = "="
readout_value = 200

[[record]]
compound = "CC(C)n1ccc2c(C(=O)Nc3cccnc3)cc(-c3cccs3)nc21 [JX-062]"
comparative_sign = "="
readout_value = 25

[[record]]
compound = "CC(C)n1ccc2c(C(=O)Nc3ccccn3)cc(-c3cccs3)nc21 [JX-072]"
comparative_sign = "="
readout_value = 25


* * *

- Test system: Enterovirus D68 strain US/KY/14-18953
- Method Summary: Virus CPE assay, Enterovirus D68 US/KY/14-18953 in RD cells
- Format: cell-based
- Measurement Setup: Enterovirus D
pEC50: −log10 of the molar value.
Known pEC50 of a selection of compounds
Property Name: pEC50

[[record]]
compound = "CC(C)n1ncc2c(C(=O)Nc3ccccc3F)cc(-c3cccs3)nc21 [JX-001, reference compound]"
readout_value = 6.30

[[record]]
compound = "CC(C)n1ccc2c(C(=O)Nc3ccc(F)cc3)cc(-c3cccs3)nc21 [JX-037]"
readout_value = 5.96

[[record]]
compound = "CC(C)n1ccc2c(C(=O)Nc3ccccn3)cc(-c3cccs3)nc21 [JX-072]"
readout_value = 6.22

[[record]]
compound = "CC(C)n1ccc2c(C(=O)Nc3cccnc3)cc(-c3cccs3)nc21 [JX-062]"
readout_value = 6.59


* * *

- Tested on: HeLa-RW cells
- Method Summary: Cytotoxicity (CC50) in HeLa-RW cells
- Type: cell-based
- Measurement Setup: concentration that reduces host cell viability by 50%
Property Name: CC50 (µM)

[[record]]
compound = "CC(C)n1ccc2c(C(=O)Nc3ccccn3)cc(-c3cccs3)nc21 [JX-072]"
measurement_target = "HeLa-RW cells"
property_name = "CC50"
readout_value = 18.8

[[record]]
compound = "CC(C)n1ccc2c(C(=O)Nc3cccnc3)cc(-c3cccs3)nc21 [JX-062]"
measurement_target = "HeLa-RW cells"
property_name = "CC50"
readout_value = 18

[[record]]
compound = "CC(C)n1ncc2c(C(=O)Nc3ccccc3F)cc(-c3cccs3)nc21 [JX-001, reference compound]"
measurement_target = "HeLa-RW cells"
property_name = "CC50"
readout_value = 12.5


* * *

Known EC50 of a selection of compounds
- System: Echovirus 7
- Method Summary: Virus CPE assay, ECHO07 in LLC cells
- Format: cell-based
- Measurement Setup: Enterovirus B, >10 = no antiviral activity at 10 μM
Property Name: EC50 (nM)

[[record]]
compound = "CC(C)n1ncc2c(C(=O)Nc3ccc(F)cc3)nc(-c3cccs3)nc21"
comparative_sign = ">"
readout_value = 10000

[[record]]
compound = "CC(C)n1nnc2c(C(=O)Nc3ccc(F)cc3)cc(-c3cccs3)nc21"
comparative_sign = ">"
readout_value = 10000

[[record]]
compound = "CC(C)n1ccc2c(C(=O)Nc3ccccn3)cc(-c3cccs3)nc21"
comparative_sign = "="
readout_value = 3000

[[record]]
compound = "CC(C)n1ncc2c(C(=O)Nc3ccccc3F)cc(-c3cccs3)nc21 [JX-001, reference compound]"
comparative_sign = "="
readout_value = 2400


* * *

- Method Summary: Cytotoxicity (CC50) in LLC cells
- Type: cell-based
- Measurement Setup: LLC cells; concentration that reduces host cell viability by 50%
Property Name: CC50 (µM)

[[record]]
line_notation = "CC(C)n1ccc2c(C(=O)Nc3ccc(F)cc3)cc(-c3cccs3)nc21"
property_name = "CC50"
readout_value = 100


* * *

- Tested on: Poliovirus 1
- Method Summary: microbe, parasite or virus in culture
- Assay type: cell-based
- Measurement Setup: Enterovirus C, read-out: EC50 PV1
pEC50: −log10 of the molar value.
Property Name: pEC50

[[record]]
compound = "CC(C)n1nnc2c(C(=O)Nc3ccc(F)cc3)cc(-c3cccs3)nc21"
readout_value = "< 5.00"

[[record]]
compound = "CC(C)n1ccc2c(C(=O)Nc3ccc(F)cc3)cc(-c3cccs3)nc21"
readout_value = "< 4.60"

[[record]]
compound = "CC(C)n1ncc2c(C(=O)Nc3ccc(F)cc3)nc(-c3cccs3)nc21"
readout_value = "< 5.00"

[[record]]
compound = "CC(C)n1ccc2c(C(=O)Nc3ccncc3)cc(-c3cccs3)nc21"
readout_value = "< 5.00"

[[record]]
compound = "CC(C)n1ccc2c(C(=O)Nc3cccnc3)cc(-c3cccs3)nc21"
readout_value = "< 5.00"

[[record]]
compound = "CC(C)n1ccc2c(C(=O)Nc3ccccn3)cc(-c3cccs3)nc21"
readout_value = "< 5.00"

[[record]]
compound = "CC(C)n1ncc2c(C(=O)Nc3ccccc3F)cc(-c3cccs3)nc21 [JX-001, reference compound]"
readout_value = 5.15


* * *

- Test system: Enterovirus D68 strain US/Mo/14-18949
- Method Summary: Virus CPE assay, Enterovirus D68 US/Mo/14-18949 in RD cells
- Format: cell-based
- Measurement Setup: Enterovirus D; RD cells
Known EC50 of a selection of compounds
Property Name: EC50 (nM)

[[record]]
compound = "CC(C)n1ccc2c(C(=O)Nc3ccc(F)cc3)cc(-c3cccs3)nc21"
property_name = "EC50"
readout_value = 570

[[record]]
compound = "CC(C)n1ncc2c(C(=O)Nc3ccccc3F)cc(-c3cccs3)nc21 [JX-001, reference compound]"
property_name = "EC50"
readout_value = 330

[[record]]
compound = "CC(C)n1ccc2c(C(=O)Nc3cccnc3)cc(-c3cccs3)nc21"
property_name = "EC50"
readout_value = 130


* * *

- Test system: Poliovirus 3
- Method Summary: microbe, parasite or virus in culture
- Type: cell-based
- Measurement Setup: Enterovirus C, read-out: EC50 PV3
Property Name: EC50

[[record]]
molecule = "CC(C)n1ccc2c(C(=O)Nc3ccc(F)cc3)cc(-c3cccs3)nc21"
property_name = "EC50"
readout_value = "> 25 µM"

[[record]]
molecule = "CC(C)n1ncc2c(C(=O)Nc3ccccc3F)cc(-c3cccs3)nc21 [JX-001, reference compound]"
property_name = "EC50"
readout_value = "7 µM"

[[record]]
molecule = "CC(C)n1ncc2c(C(=O)Nc3ccc(F)cc3)nc(-c3cccs3)nc21"
property_name = "EC50"
readout_value = "> 10 µM"

[[record]]
molecule = "CC(C)n1ccc2c(C(=O)Nc3ccccn3)cc(-c3cccs3)nc21"
property_name = "EC50"
readout_value = "> 10 µM"

[[record]]
molecule = "CC(C)n1ccc2c(C(=O)Nc3cccnc3)cc(-c3cccs3)nc21"
property_name = "EC50"
readout_value = "> 10 µM"

[[record]]
molecule = "CC(C)n1ccc2c(C(=O)Nc3ccncc3)cc(-c3cccs3)nc21"
property_name = "EC50"
readout_value = "> 10 µM"

[[record]]
molecule = "CC(C)n1nnc2c(C(=O)Nc3ccc(F)cc3)cc(-c3cccs3)nc21"
property_name = "EC50"
readout_value = "> 10 µM"

